- experiment_summary: Drug level in C57BI/6 mouse spleen at 30 mg/kg, po after 4 hrs
- Assay type: ADME, organism-based
- Design: dose 30 mg/kg, route oral
- condition_info: read-out: Drug uptake
measure: concentration at 4 h (nM)
Answers are plain numbers, in nM.

Reported concentration at 4 h of CN(C)CCCOc1ccc(-c2cc3c(ncn3C)c(C#N)n2)cc1C(F)(F)F : 2430

###

So I've got a bunch of compounds here, and I need their bioavailability values.
- experiment_summary: Oral bioavailability in Sprague-Dawley rat at 2 mg/kg, iv or 10 mg/kg, po
- Type: ADME, organism-based
- condition_info: in vivo
One number for each entry, in %.

{"molecular_string": "Cn1cnc2c(C#N)nc(-c3ccc(OCCC4CCN(Cc5ncco5)CC4)c(C(F)(F)F)c3)cc21", "reported": 3.6}

Reported bioavailability of CN(C)C(=O)CN1CCC(CCOc2ccc(-c3cc4c(ncn4C)c(C#N)n3)cc2C(F)(F)F)CC1 : 8.93

###

So I've got a bunch of molecules here, and I need their IC50 values.
- target_of_assay: Cathepsin K (Homo sapiens)
- Sequence (P43235 whole entry): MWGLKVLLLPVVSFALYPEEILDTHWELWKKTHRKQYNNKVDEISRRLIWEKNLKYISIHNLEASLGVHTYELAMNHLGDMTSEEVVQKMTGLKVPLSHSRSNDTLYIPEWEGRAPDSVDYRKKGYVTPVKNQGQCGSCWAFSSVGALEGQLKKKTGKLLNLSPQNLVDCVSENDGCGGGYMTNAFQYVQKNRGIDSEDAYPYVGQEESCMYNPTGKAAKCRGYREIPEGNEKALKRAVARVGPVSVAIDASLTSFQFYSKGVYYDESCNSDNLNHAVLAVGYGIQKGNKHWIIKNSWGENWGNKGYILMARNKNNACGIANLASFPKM
One number for each entry, in nM.

Solved cases below.
{"molecular_string": "CC(=O)N1CCC(CCOc2ccc(-c3cc4c(ncn4C)c(C#N)n3)cc2C(F)(F)F)CC1", "measure": "IC50", "reported": 1910}
{"molecular_string": "Cc1noc(C)c1CN1CCC(CCOc2ccc(-c3cc4c(ncn4C)c(C#N)n3)cc2C(F)(F)F)CC1", "measure": "IC50", "reported": 288}
{"molecular_string": "Cn1cnc2c(C#N)nc(-c3ccc(OCCC4CCN(S(C)(=O)=O)CC4)c(C(F)(F)F)c3)cc21", "measure": "IC50", "reported": 2340}
{"molecular_string": "Cn1cnc2c(C#N)nc(-c3ccc(OCCC4CCN(Cc5ncco5)CC4)c(C(F)(F)F)c3)cc21", "measure": "IC50", "reported": 708}
{"molecular_string": "CN(C)C(=O)CN1CCC(CCOc2ccc(-c3cc4c(ncn4C)c(C#N)n3)cc2C(F)(F)F)CC1", "measure": "IC50", "reported": 407}

For each of the molecules below, state IC50.
1. Cc1noc(CN2CCC(CCOc3ccc(-c4cc5c(ncn5C)c(C#N)n4)cc3C(F)(F)F)CC2)n1
2. Cc1nnc(CN2CCC(CCOc3ccc(-c4cc5c(ncn5C)c(C#N)n4)cc3C(F)(F)F)CC2)o1

1. 1150
2. 813

###

So I've got a bunch of molecules here, and I need their concentration values.
- Tested on: Spleen
- experiment_summary: Drug level in C57BI/6 mouse spleen at 30 mg/kg, po
- Format: ADME, organism-based
- Parameters: dose 30 mg/kg, route oral
- condition_info: in vivo, read-out: Drug uptake
Give bare numbers, in µM.

{"molecular_string": "CCN1CCN(CCCOc2ccc(-c3cc4c(ncn4C)c(C#N)n3)cc2C(F)(F)F)CC1", "units_of_measure": "µM", "concentration": 4.57}
{"molecular_string": "Cc1noc(C)c1CN1CCC(CCOc2ccc(-c3cc4c(ncn4C)c(C#N)n3)cc2C(F)(F)F)CC1", "units_of_measure": "µM", "concentration": 19.6}
{"molecular_string": "Cn1cnc2c(C#N)nc(-c3ccc(OCCC4CCN(Cc5ncco5)CC4)c(C(F)(F)F)c3)cc21", "units_of_measure": "µM", "concentration": 12.5}
{"molecular_string": "CN(C)C(=O)CN1CCC(CCOc2ccc(-c3cc4c(ncn4C)c(C#N)n3)cc2C(F)(F)F)CC1", "units_of_measure": "µM", "concentration": 11.7}
{"molecular_string": "Cc1nnc(CN2CCC(CCOc3ccc(-c4cc5c(ncn5C)c(C#N)n4)cc3C(F)(F)F)CC2)o1", "units_of_measure": "µM", "concentration": 18.2}

Reported concentration of Cc1noc(CN2CCC(CCOc3ccc(-c4cc5c(ncn5C)c(C#N)n4)cc3C(F)(F)F)CC2)n1 : 4.09

###

- experiment_summary: Drug level in C57BI/6 mouse plasma at 30 mg/kg, po after 4 hrs
- Assay type: ADME, organism-based
- Parameters: dose 30 mg/kg, route oral
measure: concentration at 4 h (nM)
One number for each entry, in nM.

Reported concentration at 4 h of CN(C)CCCOc1ccc(-c2cc3c(ncn3C)c(C#N)n2)cc1C(F)(F)F : 94

###

- experiment_summary: Ratio of drug level in spleen to plasma in C57BI/6 mouse at 30 mg/kg, po
- Format: ADME, organism-based
- Design: dose 30 mg/kg, route oral
So I've got a bunch of molecules here, and I need their Kp values.

Solved cases below.
{"molecular_string": "Cc1nnc(CN2CCC(CCOc3ccc(-c4cc5c(ncn5C)c(C#N)n4)cc3C(F)(F)F)CC2)o1", "measure": "Kp", "reported": 2.9}
{"molecular_string": "CN(C)C(=O)CN1CCC(CCOc2ccc(-c3cc4c(ncn4C)c(C#N)n3)cc2C(F)(F)F)CC1", "measure": "Kp", "reported": 11.4}
{"molecular_string": "CCN1CCN(CCCOc2ccc(-c3cc4c(ncn4C)c(C#N)n3)cc2C(F)(F)F)CC1", "measure": "Kp", "reported": 51}
{"molecular_string": "Cc1noc(CN2CCC(CCOc3ccc(-c4cc5c(ncn5C)c(C#N)n4)cc3C(F)(F)F)CC2)n1", "measure": "Kp", "reported": 0.7}

For each of the molecules below, state Kp.
1. Cc1noc(C)c1CN1CCC(CCOc2ccc(-c3cc4c(ncn4C)c(C#N)n3)cc2C(F)(F)F)CC1
2. Cn1cnc2c(C#N)nc(-c3ccc(OCCC4CCN(Cc5ncco5)CC4)c(C(F)(F)F)c3)cc21

1: 5.8; 2: 1.9

###

- target_of_assay: UniProtKB P07711
- Sequence (P07711 whole entry): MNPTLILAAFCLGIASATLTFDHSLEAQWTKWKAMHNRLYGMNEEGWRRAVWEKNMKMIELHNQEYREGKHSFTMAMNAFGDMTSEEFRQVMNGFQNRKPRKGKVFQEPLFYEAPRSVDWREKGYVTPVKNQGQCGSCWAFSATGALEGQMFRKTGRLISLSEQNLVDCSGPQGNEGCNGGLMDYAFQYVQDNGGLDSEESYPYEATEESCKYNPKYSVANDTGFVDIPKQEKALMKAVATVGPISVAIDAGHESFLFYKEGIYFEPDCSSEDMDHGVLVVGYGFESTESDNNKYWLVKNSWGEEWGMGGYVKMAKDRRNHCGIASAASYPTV
pIC50: −log10 of the molar value.
measure: pIC50

Solved cases below.
{"molecular_string": "Cn1cnc2c(C#N)nc(-c3ccc(OCCC4CCNCC4)c(C(F)(F)F)c3)cc21", "pIC50": "< 5.00"}
{"molecular_string": "Cc1nnc(CN2CCC(CCOc3ccc(-c4cc5c(ncn5C)c(C#N)n4)cc3C(F)(F)F)CC2)o1", "pIC50": "< 5.00"}
{"molecular_string": "CN(C)C(=O)CN1CCC(CCOc2ccc(-c3cc4c(ncn4C)c(C#N)n3)cc2C(F)(F)F)CC1", "pIC50": "< 5.00"}
{"molecular_string": "CC(=O)N1CCC(CCOc2ccc(-c3cc4c(ncn4C)c(C#N)n3)cc2C(F)(F)F)CC1", "pIC50": "< 5.00"}

For each of the molecules below, state pIC50.
1. CN1CCC(CCOc2ccc(-c3cc4c(ncn4C)c(C#N)n3)cc2C(F)(F)F)CC1
2. Cc1noc(C)c1CN1CCC(CCOc2ccc(-c3cc4c(ncn4C)c(C#N)n3)cc2C(F)(F)F)CC1
3. Cn1cnc2c(C#N)nc(-c3ccc(OCCC4CCN(Cc5ncco5)CC4)c(C(F)(F)F)c3)cc21

< 5.00
< 5.00
< 5.00

###

- Tested on: Plasma
- experiment_summary: Drug level in C57BI/6 mouse plasma at 30 mg/kg, po
- Format: ADME, organism-based
- Set-up: dose 30 mg/kg, route oral
- condition_info: in vivo
So I've got a bunch of molecules here, and I need their concentration values.
Answers are plain numbers, in µM.

{"molecular_string": "Cc1nnc(CN2CCC(CCOc3ccc(-c4cc5c(ncn5C)c(C#N)n4)cc3C(F)(F)F)CC2)o1", "target_of_assay": "Plasma", "concentration [µM]": 6.37}
{"molecular_string": "CN(C)C(=O)CN1CCC(CCOc2ccc(-c3cc4c(ncn4C)c(C#N)n3)cc2C(F)(F)F)CC1", "target_of_assay": "Plasma", "concentration [µM]": 1.03}

Measured concentration for this entry Cc1noc(CN2CCC(CCOc3ccc(-c4cc5c(ncn5C)c(C#N)n4)cc3C(F)(F)F)CC2)n1 on Plasma: 5.66
